- Assay Target: IDO1 (Homo sapiens)
- Sequence (P14902 whole entry): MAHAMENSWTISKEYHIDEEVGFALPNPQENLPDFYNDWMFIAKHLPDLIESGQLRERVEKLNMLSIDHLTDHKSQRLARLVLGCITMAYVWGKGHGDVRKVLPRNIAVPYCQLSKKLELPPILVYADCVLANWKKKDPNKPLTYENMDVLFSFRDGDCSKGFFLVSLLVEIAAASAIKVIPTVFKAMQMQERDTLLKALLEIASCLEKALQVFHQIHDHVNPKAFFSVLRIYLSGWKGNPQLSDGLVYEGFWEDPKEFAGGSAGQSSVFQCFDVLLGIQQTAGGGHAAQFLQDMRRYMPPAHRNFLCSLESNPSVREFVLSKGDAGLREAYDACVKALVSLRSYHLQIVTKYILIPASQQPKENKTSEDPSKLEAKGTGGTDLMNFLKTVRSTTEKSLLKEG
- Protocol: IDO1 Cellular Assay in HeLa Cells Stimulated with IFNγ
- Type: cell-based
- Setup Conditions: about 48 hours, read-out: Hela IC50
Assay Readout: pIC50
# log scale: pIC50 equals minus log10 of the concentration in mol/L

{"Compound": "CC(C(=O)Nc1ccc(F)cc1)c1ccc2c(n1)CCCN2C(=O)C1CCCO1 (stereo in doubt)", "pIC50": 8.57}
{"Compound": "CC(C(=O)Nc1ccc(Cl)cc1)c1ccc2c(c1)CC(F)CN2C(=O)c1cccc(Cl)c1 (single isomer, unassigned) [Example 256]", "pIC50": 8.63}
{"Compound": "Cc1cc(C(=O)N2CCCc3cc(C(C)C(=O)Nc4ccc(F)cc4)ccc32)no1 (stereo not drawn)", "pIC50": 8.41}
{"Compound": "Cn1cc(C(=O)N2CCCc3nc(C4(NC(=O)c5ccc(F)cc5)CC4)ccc32)cn1", "pIC50": 7.40}
{"Compound": "C[C@H](C(=O)Nc1ccc(F)cn1)c1ccc2c(c1)CCCN2C(=O)C1CC1 (single isomer, unassigned)", "pIC50": 8.03}
{"Compound": "C[C@@H](C(=O)Nc1ccc(F)cn1)c1ccc2c(c1)CCCN2C(=O)c1cccc(Cl)c1 (single isomer, unassigned)", "pIC50": 8.62}
{"Compound": "O=C(NC1(c2ccc3c(n2)CCCN3c2ccncn2)CC1)c1ccc(F)cc1", "pIC50": 8.03}
{"Compound": "Cn1ccc(C(=O)N2CCCc3cc(C4(C(=O)Nc5ccc(F)cn5)CCC4)ccc32)n1", "pIC50": 8.85}
{"Compound": "CC(NC(=O)c1ccc(F)cc1)c1ccc2c(n1)C(F)CCN2C(=O)C1CC1 (single isomer, unassigned) [Example 202]", "pIC50": 6.40}
{"Compound": "CC(C(=O)Nc1ccc(Cl)cc1)c1ccc2c(c1)CC(F)CN2C(=O)c1cccc(Cl)c1 (single isomer, unassigned) [Example 259]", "pIC50": 8.60}

We next turn to a different compound, shown below.
Exam item: Supply reported pIC50 belonging to this compound: CC(C(=O)Nc1ccc(F)cc1)c1ccc2c(c1)CCCN2C(=O)c1cnn(C)c1 (stereo not drawn)
Marked response: 7.80

###

- Assay Target: UniProt P14902
- Protocol: IDO1 Cellular Assay in HeLa Cells Stimulated with IFNγ
- Type: cell-based
- Setup Conditions: about 48 hours, read-out: Hela IC50
In this section, each of the molecules is paired with its reported log10 IC50.
Answers are given as log10 of IC50 in nM.

See these solved cases before continuing.
{"Molecule": "Cc1ccnc(C(=O)N2CCCc3cc(C4(C(=O)Nc5ccc(F)cn5)CCC4)ccc32)n1 [Example 118]", "log10 IC50": 0.18}
{"Molecule": "CCn1ccc(C(=O)N2CCCc3nc(C(C)NC(=O)c4ccc(F)cc4)ccc32)n1 (stereo in doubt) [Example 143]", "log10 IC50": 1.06}
{"Molecule": "Cc1nccc(N2CCCc3nc(C4(NC(=O)c5ccc(Br)cc5)CC4)ccc32)n1 [Example 301]", "log10 IC50": 0.23}
{"Molecule": "C=CCC(C(=O)Nc1ccc(F)cc1)c1ccc2c(c1)CCCN2C(=O)c1cccc(Cl)c1 (centres unmarked) [Example 58]", "log10 IC50": 0.63}
{"Molecule": "O=C(NC1(c2ccc3c(n2)CCCN3C(=O)NC2CC2)CC1)c1ccc(F)cc1 [Example 214]", "log10 IC50": 2.20}
{"Molecule": "Cc1cccc(N2CCCc3nc(C4(NC(=O)c5ccc(Cl)cc5)CCC4)ccc32)n1 [Example 405]", "log10 IC50": 0.28}
{"Molecule": "O=C(c1nnc(C(F)(F)F)[nH]1)N1CCCc2cc(C3(C(=O)Nc4ccc(F)cc4)CCC3)ccc21 [Example 110]", "log10 IC50": 2.39}

Okay, now this molecule:
Exam item: Identify measured log10 IC50 associated with Cc1nc(C(=O)N2CCCc3cc(C4(C(=O)Nc5ccc(F)cc5)CCC4)ccc32)no1 [Example 100]
Marked response: 0.08
